molecular target: SARS-CoV-2 NSP3 macrodomain (Mac1) (Severe acute respiratory syndrome coronavirus 2, UniProt P0DTD1); assay type: binding; conditions: refined crystallographic occupancy
Recorded measurements of Refined ligand occupancy (%), one per entry
endpoint: Refined ligand occupancy (%)

molecule | endpoint | recorded-value
OCC(Cc1ccoc1)Nc1ncnc2[nH]ccc12 (centres unmarked) | Refined ligand occupancy (%) | 42
OCC(Cc1cccs1)Nc1ncnc2[nH]ccc12 (centres unmarked) | Refined ligand occupancy (%) | 42
Cc1ccc(CC(CO)Nc2ncnc3[nH]ccc23)cc1 (centres unmarked) | Refined ligand occupancy (%) | 50
OCC(Cc1ccccc1)Nc1ncnc2[nH]ccc12 (centres unmarked) | Refined ligand occupancy (%) | 50
CCC(O)[C@H]1CCCN1c1ncnc2[nH]ccc12 (some centres unmarked) | Refined ligand occupancy (%) | 70

// data source = paper PMC12118597
